Molecular target: Runt-related transcription factor 1 (Homo sapiens) + Core-binding factor subunit beta (Homo sapiens) (UniProt Q01196+Q13951)
Sequence (Q01196 whole entry, looked up): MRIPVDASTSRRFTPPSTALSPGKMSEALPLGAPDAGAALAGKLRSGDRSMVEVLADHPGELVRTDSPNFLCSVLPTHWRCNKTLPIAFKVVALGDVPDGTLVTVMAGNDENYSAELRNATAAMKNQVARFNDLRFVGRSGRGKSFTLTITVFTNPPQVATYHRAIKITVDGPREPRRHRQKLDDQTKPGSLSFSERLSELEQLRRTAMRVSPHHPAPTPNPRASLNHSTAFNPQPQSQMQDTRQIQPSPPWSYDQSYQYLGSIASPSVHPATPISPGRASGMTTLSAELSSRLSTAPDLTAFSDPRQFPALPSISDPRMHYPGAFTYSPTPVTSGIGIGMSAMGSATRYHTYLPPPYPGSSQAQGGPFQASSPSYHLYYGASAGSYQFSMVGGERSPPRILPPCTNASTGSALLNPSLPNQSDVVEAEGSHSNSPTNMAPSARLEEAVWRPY
Sequence (Q13951 whole entry, looked up): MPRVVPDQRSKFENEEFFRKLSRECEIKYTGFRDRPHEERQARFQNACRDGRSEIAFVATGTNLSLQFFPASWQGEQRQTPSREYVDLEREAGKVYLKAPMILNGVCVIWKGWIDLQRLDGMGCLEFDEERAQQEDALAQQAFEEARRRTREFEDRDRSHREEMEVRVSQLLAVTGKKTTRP
Experiment: inhibitors of RUNX1 Runt–CBFb binding, primary screen, biochemical, FRET, Cerulean-Runt, Venus-CBFb, uHTS (AID 1496)
Details: Cerulean-Runt/Venus-CBFb FRET ratio 530/480, 1 h; at 20 µM; hits give high values
Out of some 220,000 compounds screened, about 990 (0.45%) were called active. This is one part of a sample in which actives are shown more often than they occur.
Criterion: inhibition meeting or surpassing 20%. Met: criterion met. Not met: criterion not met.

# test_smiles, label_class
data = [
    ("OCCN1CCN(C(=S)c2ccc(-c3ccccc3)cc2)CC1", "criterion met"),
    ("CCCCCCc1cc2cc(-c3nnc(-c4ccccc4)o3)c(=O)oc2cc1O", "criterion met"),
    ("Cc1c(CCC(=O)O)c(=O)oc2cc3occ(-c4ccccc4)c3cc12", "criterion not met"),
    ("O=C(NC(c1ccccc1)c1ccccc1)N1CCN(CCO)CC1", "criterion not met"),
    ("CCN(CC)S(=O)(=O)c1ccc(N2CCOCC2)c(C(=O)O)c1", "criterion not met"),
    ("S=C(c1ccc(-c2ccccc2)o1)N1CCCCC1", "criterion met"),
    ("CCOC(=O)Cc1csc(NC(=O)COc2ccc3c(C)cc(=O)oc3c2)n1", "criterion not met"),
]
